Origin of values: patent US5250683A

Tubulin Assay Init. Peak values by entry
# Tested on: tubulin
# assay_overview: Tubulin binding assay (Tubulin Assay), method of Parness et al.
# test_conditions: compared to taxol and taxotere
// response body must contain only the number

Some molecules with recorded Tubulin Assay Init. Peak:
{"structure_notation": "CC(=O)O[C@H]1C(=O)[C@@]2(C)[C@H]([C@H](OC(=O)c3ccccc3)[C@]3(O)C[C@H](OC(=O)[C@H](O)[C@@H](NC(=O)c4ccc(C(C)(C)C)cc4)c4ccc(F)cc4)C(C)=C1C3(C)C)[C@]1(OC(C)=O)CO[C@@H]1C[C@@H]2O", "test_system": "tubulin", "reading": 55}
{"structure_notation": "COc1ccc([C@H](NC(=O)c2ccc(Br)cc2)[C@@H](O)C(=O)O[C@H]2C[C@@]3(O)[C@@H](OC(=O)c4ccccc4)[C@@H]4[C@]5(OC(C)=O)CO[C@@H]5C[C@H](O)[C@@]4(C)C(=O)[C@H](OC(C)=O)C(=C2C)C3(C)C)cc1", "test_system": "tubulin", "reading": 44}
{"structure_notation": "CC(=O)O[C@H]1C(=O)[C@@]2(C)[C@H]([C@H](OC(=O)c3ccccc3)[C@]3(O)C[C@H](OC(=O)[C@H](O)[C@@H](NC(=O)c4ccc(Br)cc4)c4ccccc4)C(C)=C1C3(C)C)[C@]1(OC(C)=O)CO[C@@H]1C[C@@H]2O", "test_system": "tubulin", "reading": 67}
{"structure_notation": "COc1ccc(C(=O)N[C@@H](c2ccccc2)[C@@H](O)C(=O)O[C@H]2C[C@@]3(O)[C@@H](OC(=O)c4ccccc4)[C@@H]4[C@]5(OC(C)=O)CO[C@@H]5C[C@H](O)[C@@]4(C)C(=O)[C@H](OC(C)=O)C(=C2C)C3(C)C)cc1", "test_system": "tubulin", "reading": 95}

Enquiry: Look at this molecule and give its reported Tubulin Assay Init. Peak. COc1ccc([C@H](NC(=O)c2ccc(Cl)cc2)[C@@H](O)C(=O)O[C@H]2C[C@@]3(O)[C@@H](OC(=O)c4ccccc4)[C@@H]4[C@]5(OC(C)=O)CO[C@@H]5C[C@H](O)[C@@]4(C)C(=O)[C@H](OC(C)=O)C(=C2C)C3(C)C)cc1
Return: 42

---

# Tested on: tubulin
# assay_overview: Tubulin binding assay (Tubulin Assay), method of Parness et al.
# test_conditions: compared to taxol and taxotere
Parameter Tubulin Assay Rel. Rate: see the listing below.
Lab note: record the figure alone, no unit after it.

{"compound": "CC(=O)O[C@H]1C(=O)[C@@]2(C)[C@H]([C@H](OC(=O)c3ccccc3)[C@]3(O)C[C@H](OC(=O)[C@H](O)[C@@H](NC(=O)c4ccc(Cl)cc4)c4ccccc4)C(C)=C1C3(C)C)[C@]1(OC(C)=O)CO[C@@H]1C[C@@H]2O [Example 10, N-debenzoyl-N-(4-chlorobenzoyl) taxol]", "reading": 90}

Enquiry: Name the recorded Tubulin Assay Rel. Rate for COc1ccc([C@H](NC(=O)c2ccc(F)cc2)[C@@H](O)C(=O)O[C@H]2C[C@@]3(O)[C@@H](OC(=O)c4ccccc4)[C@@H]4[C@]5(OC(C)=O)CO[C@@H]5C[C@H](O)[C@@]4(C)C(=O)[C@H](OC(C)=O)C(=C2C)C3(C)C)cc1 [Example 21] .
Return: 81

Enquiry: Quick one: Tubulin Assay Rel. Rate of CC(=O)O[C@H]1C(=O)[C@@]2(C)[C@H]([C@H](OC(=O)c3ccccc3)[C@]3(O)C[C@H](OC(=O)[C@H](O)[C@@H](NC(=O)c4ccc(C(C)(C)C)cc4)c4ccc(F)cc4)C(C)=C1C3(C)C)[C@]1(OC(C)=O)CO[C@@H]1C[C@@H]2O [Example 27] ?
Return: 82

Enquiry: What measured Tubulin Assay Rel. Rate goes with CC(=O)O[C@H]1C(=O)[C@@]2(C)[C@H]([C@H](OC(=O)c3ccccc3)[C@]3(O)C[C@H](OC(=O)[C@H](O)[C@@H](NC(=O)c4ccccc4)c4cccc5ccccc45)C(C)=C1C3(C)C)[C@]1(OC(C)=O)CO[C@@H]1C[C@@H]2O [Example 1, 3'-desphenyl-3'-(1-naphthyl) taxol] ?
Return: 0
